test system: OVCAR-4 ovarian; assay: NCI-60 one-dose screen, 48 h (100 = growth as untreated, 0 = no growth, -100 = all killed); conditions: 10 µM unless noted
About 83,000 compounds went through this panel and 20% of them were active in at least one assay; those are over-represented in the sample as a whole.
Note to self: class labels come from recorded growth, ranges listed here: lower band: < -20%; central band: ≥ -20% and < 70%; upper band: ≥ 70%

compound: Cc1ccc(C(=O)OC(C(=O)O)C(OC(=O)c2ccc(C)cc2)C(=O)O)cc1 (stereo not given) (tested in a mixture with another compound)
assigned.label: central band
--
compound: CCCCCCCCCCCC1CCCC(C)N1 (stereo not given)
assigned.label: upper band
--
compound: CO[C@H](/C(C)=C/C=C/C(C)=C/c1coc(C)n1)[C@H](C)[C@H]1C[C@@H](O)[C@@]2(C)O[C@H]2/C=C/[C@@H](C)[C@@H]2C[C@@H](CC(=O)O2)C[C@H]2O[C@@H]2C(=O)O1
assigned.label: central band
--
compound: C[C@]12CC[C@H](O)CC1=CC[C@@H]1[C@@H]2CC[C@]2(C)C(=O)CC[C@@H]12
assigned.label: upper band
--
compound: CC[C@@]1(O)C[C@H](OC2CC(N(C)C)C(OC3CC(O)C(OC4CCC(=O)C(C)O4)C(C)O3)C(C)O2)c2c(cc3c(c2O)C(=O)c2c(O)ccc(O)c2C3=O)[C@H]1C(=O)OC (stereo not given in full)
assigned.label: lower band
--
compound: CCC1(O)CC(OC2CC(N(C)C)C(OC3CC4OC5CC(=O)C(C)OC5OC4C(C)O3)C(C)O2)c2c(cc3c(c2O)C(=O)c2c(O)ccc(O)c2C3=O)C1C(=O)OC (stereo not given)
assigned.label: lower band
--
compound: CC[C@](O)(C(=O)O)c1cc2n(c(=O)c1CO)Cc1cc3ccccc3nc1-2
assigned.label: central band
--
compound: CC1=C2C(=O)[C@H]3[C@@H](CC=C4C[C@@H](O)CC[C@@]43C)[C@@H]2CC[C@]12O[C@@H]1C[C@H](C)CN[C@H]1[C@H]2C
assigned.label: upper band
--
compound: CN1CCN(c2ccc([N+](=O)[O-])c3no[n+]([O-])c23)CC1
assigned.label: lower band
